Test system: production and secretion of NGF in brain astroglial cells
Experiment: Promoting activity for the production and secretion of NGF in brain astroglial cells of mouse (ELISA)
Condition Context: 24 h, read-out: Ratio of NGF increase, 24-hr culture, Table 4, 0.10 mM, 24-hr culture
Sorting guide: entries reporting fold induction at 100 µM beneath 50 go in the yes pile, the rest go in the no pile.

Worked examples follow.
Q: Field: below-cutoff. Rule: recorded fold induction at 100 µM strictly less than 50. Subject: Cc1ccc2oc(=O)oc2c1 [CO-, R1 = H, R2 = Methyl, 4-methyl-o-phenylenecarbonate]
A: no

Q: And what about the compound Cc1ccc2oc(=O)c(=O)oc2c1 ?
A: yes

Q: And what about the compound Cc1ccc2c(c1)OC(C)(C)O2 ?
A: yes

In the following, a different compound is considered.
Q: Field: below-cutoff. Rule: recorded fold induction at 100 µM strictly less than 50. Subject: Cc1ccc(O)c(O)c1
A: no
